PROTOCOL_NOTES: in vivo
Type: in vivo, mouse
TEST_PARAMETERS: male, C57BL/6, mouse, in vivo, iv, 2 mg/kg, 321 in brain after 321 IV 2 mg/kg; back extrapolated
QUANTITY_NAME: C0 (ng/mL)
Numeric only. Scale: ng/mL

Can you share its C0? I mean this compound: COc1ccc([C@@]23CCC(OP(=O)(OC(C)C)OC(C)C)=C[C@@H]2N(C)CC3)cc1OC 158

---

PROTOCOL_NOTES: Hydrolysis Assay - Condition 1 (SGF)
Assay type: physicochemical
TEST_PARAMETERS: SGF with pepsin pH 1.5, 37° C., 0.5 mM, 1 h
QUANTITY_NAME: Condition 1 Conversion (%)
Numeric only. Scale: %

These recorded examples may help you get a feel for the data.
{"LINE_NOTATION": "COc1ccc([C@@]23CCC(OP4(=O)OCC(C)(C)CO4)=C[C@@H]2N(C)CC3)cc1OC", "NUMERIC_VALUE": 0}
{"LINE_NOTATION": "COc1ccc([C@@]23CCC(OC(=O)OC(C)(C)C)=C[C@@H]2N(C)CC3)cc1OC", "NUMERIC_VALUE": 5}
{"LINE_NOTATION": "COc1ccc([C@@]23CCC(OC(=O)N4CCN(C)CC4)=C[C@@H]2N(C)CC3)cc1OC", "NUMERIC_VALUE": 0}
{"LINE_NOTATION": "COc1ccc([C@@]23CCC(OC(=O)N(C)C)=C[C@@H]2N(C)CC3)cc1OC", "NUMERIC_VALUE": 0}

We next turn to a different compound, shown below.
Can you share its Condition 1 Conversion (%)? I mean this compound: CCN(C)C(=O)OC1=C[C@@H]2N(C)CC[C@]2(c2ccc(OC)c(OC)c2)CC1 0
